biological target: T1, Recombinant Human DLL4 (delta-like protein 4) (human, UniProt Q9NR61 27-524); assay: ELISA on coated DLL4, Fab at 6.25 nM (2-fold serial dilution)
T1 construct: also called rHuman DLL4; Delta-like 4
# ELISA signal per record follows

{"binder": "Fab VH5-51_IGHD5-18*01>3_IGHJ4*01 G100K/G104T (KT) & V3-4_IGLJ1*01 R56Y (Fab, V domains shown, Fab; also called H:KT & L:R56Y) VH: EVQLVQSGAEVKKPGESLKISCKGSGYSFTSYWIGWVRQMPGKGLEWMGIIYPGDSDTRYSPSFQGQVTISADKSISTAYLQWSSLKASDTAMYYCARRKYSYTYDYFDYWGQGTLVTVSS VL: QTVVTQEPSFSVSPGGTVTLTCGLSSGSVSTSYYPSWYQQTPGQAPRTLIYSTNTYSSGVPDRFSGSILGNKAALTITGAQADDESDYYCVLYMGSGISYVFGTGTKVTVL", "ELISA signal": 0.182}
{"binder": "Fab VH5-51_IGHD5-18*01>3_IGHJ4*01 G100K/G104T (KT) & V3-4_IGLJ1*01 R56A (Fab, V domains shown, Fab; also called H:KT & L:R56A) VH: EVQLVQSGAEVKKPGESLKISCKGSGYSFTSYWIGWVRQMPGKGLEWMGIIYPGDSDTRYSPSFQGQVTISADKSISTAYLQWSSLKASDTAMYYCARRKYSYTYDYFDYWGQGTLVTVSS VL: QTVVTQEPSFSVSPGGTVTLTCGLSSGSVSTSYYPSWYQQTPGQAPRTLIYSTNTASSGVPDRFSGSILGNKAALTITGAQADDESDYYCVLYMGSGISYVFGTGTKVTVL", "ELISA signal": 0.2}
{"binder": "Fab VH5-51_IGHD5-18*01>3_IGHJ4*01 G100K/G104T S28R & V3-4_IGLJ1*01 (Fab, V domains shown, Fab; also called H:KT S28R & L:parent; H:KT S28R & L:wt) VH: EVQLVQSGAEVKKPGESLKISCKGSGYRFTSYWIGWVRQMPGKGLEWMGIIYPGDSDTRYSPSFQGQVTISADKSISTAYLQWSSLKASDTAMYYCARRKYSYTYDYFDYWGQGTLVTVSS VL: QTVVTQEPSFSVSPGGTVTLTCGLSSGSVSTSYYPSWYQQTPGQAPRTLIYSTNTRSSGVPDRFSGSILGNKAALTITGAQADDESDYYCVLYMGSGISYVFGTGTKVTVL", "ELISA signal": 0.303}
